- Target entity: Spike S1 & S2 ECD (SARS-CoV-2) (UniProt P0DTC2)
- Method summary: filter
- Condition description: NapdU at 23; other dU Tyr-dU; dC Nap-dC; SB18T0.01, 37 C
pKd: −log10 of the molar value.
Outcome measure: pKd

> print(dat)
                                      chain                             target.entity  experimental.result
1  GGGANANNANGNGNNNGANNGNNNGGANG [26874-29_55]  Spike S1 & S2 ECD (SARS-CoV-2) (UniProt P0DTC2)                 9.60
